B1: Pistol ribozyme (parent)
chain: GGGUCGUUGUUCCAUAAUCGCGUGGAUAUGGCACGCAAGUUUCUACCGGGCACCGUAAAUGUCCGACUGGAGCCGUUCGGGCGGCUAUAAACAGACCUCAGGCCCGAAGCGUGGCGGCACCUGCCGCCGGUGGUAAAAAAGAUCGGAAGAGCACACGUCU

variants of: B1; test: aptazyme ON/OFF ratio, guanine; higher = stronger switching; co-transcriptional cleavage with and without guanine
ENDPOINT: aptazyme ON/OFF ratio

CHANGE | ENDPOINT VALUE
U7G U8A G9A U10G C13G | 1.2
U7A U8G G9C U10G U11A C12U C13A | 1.33
U10C U11A C12A C13U | 1.35
U7C U8C U10A U11C C12G C13A | 1.22
U8G G9U U10A U11A C12U | 1.19
U7C U8A G9A U10G | 1.38
U8G G9C U11A C12A C13U | 1.06
U7A G9C U10A U11C C13A | 1.01
U8A G9C U11A | 1.21
U7C G9A U10C U11G C12A C13U | 1.08
U7C U8A G9C C12A C13A | 1.15
U7C U8A G9A U10A U11A C12A C13G | 1.18
U8A G9C U10A U11A C12U C13A | 1.18
U7C U10A U11A C12A | 1.17
U8C U10A U11C C13A | 1.02
U7A U8A G9C U10G U11G | 1.66
U7A U8C G9U U10C U11A C13U | 1.12
U7A U8G G9C U10A U11A C13G | 1.15
U7A U8G U10A U11G C12U C13A | 1.15
U7C U8A G9U U10A U11C C12G C13G | 1.19
U7C U8C G9U U10C U11A C13A | 1.2
U8A C13A | 1.24
